Where do these numbers come from? They come from the M2OR odorant receptor database.

Tgt: UniProt Q9EPN9
Sequence (whole entry): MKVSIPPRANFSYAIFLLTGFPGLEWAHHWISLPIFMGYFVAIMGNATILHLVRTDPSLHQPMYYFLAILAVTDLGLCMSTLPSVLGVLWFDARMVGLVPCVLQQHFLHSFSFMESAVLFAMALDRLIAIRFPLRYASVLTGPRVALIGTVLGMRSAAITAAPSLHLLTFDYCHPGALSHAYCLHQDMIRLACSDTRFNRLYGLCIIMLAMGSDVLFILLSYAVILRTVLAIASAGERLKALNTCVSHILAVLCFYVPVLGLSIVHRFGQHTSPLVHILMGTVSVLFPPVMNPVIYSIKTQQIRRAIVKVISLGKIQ
Condition Details: stereoisomer not certain
Choose one outcome from this list and give only that: True (active), False (inactive)

Input line: Field: outcome | Entry: O=C1Cc2ccccc2O1
Output line: False

Input line: Hi, sorry to bother you, what did the test record for CCCCCCC(=O)[O-].[H+] ?
Output line: False

Input line: For this compound, state the assay outcome: CCCCCCCCC(=O)O
Output line: False

Input line: Outcome logged for CCCCC(=O)O in this assay:
Output line: False

Input line: Name the outcome recorded for CCCCOC(=O)C(C)OC(=O)CCC (centres undefined) in the assay.
Output line: False

Input line: Just curious, what result did CCCCOC=O get here?
Output line: False

Input line: Recorded call for CC(=O)Oc1ccccc1 ?
Output line: False

Input line: Please indicate how the test categorized c1ccccc1 .
Output line: False

Input line: Please state the recorded outcome for this compound: CCCCCCCCS
Output line: False

Input line: Can you look up the reported call for CCCCCC1=C(C)CCC1=O for me?
Output line: False

Input line: Could you kindly confirm the outcome this assay logged for CCCCCCCCCO ?
Output line: False

Input line: Record request — test call for CCCCCCCC(=O)[O-].[H+]
Output line: False

Input line: Could you kindly confirm the outcome this assay logged for COc1cc(C(=O)O)ccc1O ?
Output line: False

Input line: Entry CCC(C(=O)O)c1ccccc1 (centres undefined) : call = ?
Output line: True

Input line: Lab log entry: CCCCCCOC(C)=O — outcome as called in the assay?
Output line: False

Input line: Which outcome was entered for the compound CCC(=O)C(=O)CC in this test?
Output line: False

Input line: Please indicate how the test categorized C=C(C)C1CCC(C)C(=O)C1 (centres undefined) .
Output line: False

Input line: What was the test verdict on CCCCCCCCCS ?
Output line: False

Input line: // return assay outcome for O=c1ccc2ccccc2o1
Output line: False
